Data provenance: paper PMC4337820

- assayName: Caco-2 monolayer permeability
- Type: in vitro ADME
- conditionDetails: human, Caco-2
propertyName: Papp A→B at 2 h, 10 µM (×10⁻⁶ cm/s)
# unit: ×10⁻⁶ cm/s | format: bare number

Qu. Report Papp A→B at 2 h, 10 µM, nothing else, for this compound: CNC(=C[N+](=O)[O-])NCCSCc1ccc(CN(C)C)o1 [Ranitidine, reference compound]
Ans. 0.24
